# targetSystem: human α-thrombin (Haematologic Technologies) (human), P00734
# test: thrombin inhibition; unsulfated; unit from column head of Figure 1 table
# assaySetup: chains peptide; modification not given
pKi: −log10 of the molar value.

binder	pKi
SEQ ID No:2 (MDL-1) Un (unsulfated) (protein) YPERDSAKDGNEEQERALPVNVQERGEVADADYDDYDEEGTTPTVDPTAQTARPRLQGNQS	7.13
